Hey, just so you know, these numbers are from the RNAGym collection of RNA variant scans (doi:10.1093/nar/gkz1192).

B1: CPEB3 Ribozyme (parent)
chain: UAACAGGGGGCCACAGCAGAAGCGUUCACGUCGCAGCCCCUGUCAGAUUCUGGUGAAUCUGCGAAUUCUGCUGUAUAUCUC

Variants of: B1
experiment_summary: self-cleavage, relative activity (ratio to wild type); higher = more cleavage; in vitro, sequencing
For each entry below, report its self-cleavage value.
API doc: respond with a numeric literal and nothing else, no unit.

Any idea what self-cleavage was measured for G7U U31A ?
0.07

Same read-out for G10U A21C ?
0.06

Same read-out for C29A A45G ?
0.46

Same read-out for U1A G61C ?
0.29

Same read-out for G19A U25C ?
0.13

Same read-out for U41A C71U ?
0.24

Same read-out for `G70A` ?
0.55

Same read-out for G16A U72C ?
0.79

Same read-out for A20G U72C ?
0.84

Same read-out for A47C A65U ?
0.12

Same read-out for A21G A57G ?
0.49

Same read-out for A5U U54C ?
1.09

Same read-out for A56U U69C ?
0.38

Same read-out for G8A A20U ?
0.22

Same read-out for C27U A45G ?
0.17

Same read-out for U25C U69A ?
0.22

Same read-out for A75C U76G ?
1.25

Same read-out for U48G U54C ?
0.19

Same read-out for G6A U43A ?
0.49

Same read-out for A28G A47C ?
0.23

Same read-out for U25C U31A ?
0.25

Same read-out for U41A A75C ?
0.31

Same read-out for U49C A77G ?
0.45

Same read-out for C29A U67A ?
0.46

Same read-out for U31A U67A ?
0.34

Same read-out for A5U C38A ?
0.34

Same read-out for A64U U76A ?
0.32

Same read-out for G8U U67C ?
0.23

Same read-out for C17A U43C ?
0.32

Same read-out for U51A G73A ?
1.15

Same read-out for G7U G63A ?
0.33

Same read-out for A3C U78C ?
1.12

Same read-out for U41C G52A ?
1.18

Same read-out for A18C A21G ?
0.21

Same read-out for A20G U48G ?
0.31

Same read-out for U54A A77C ?
1.12

Same read-out for U51G U54C ?
1.06

Same read-out for C68U U78C ?
1.03

Same read-out for G8A C12G ?
0.09

Same read-out for U60G U78C ?
0.17

Same read-out for U60C C62A ?
0.19

Same read-out for G46U A47G ?
0.15

Same read-out for U1G A64C ?
0.26

Same read-out for G36U G42A ?
0.21

Same read-out for A3C U67C ?
0.33

Same read-out for A56G C79G ?
1.16
